Every entry's value here was drawn from paper PMC4108505.

Molecular target: T1, SipD^t S148E (Salmonella, UniProt Q56026 101-343, S148E)
T1 sequence: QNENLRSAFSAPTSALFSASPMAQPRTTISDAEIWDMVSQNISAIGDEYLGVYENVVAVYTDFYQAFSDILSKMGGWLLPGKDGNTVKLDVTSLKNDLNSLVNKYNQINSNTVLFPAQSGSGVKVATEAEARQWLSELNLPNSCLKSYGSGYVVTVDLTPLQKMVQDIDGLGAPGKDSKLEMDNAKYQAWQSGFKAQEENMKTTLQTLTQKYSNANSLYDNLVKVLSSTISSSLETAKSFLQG
Experiment: fluorescence polarisation

- binder: "PrgI V65A/V67A/L31C labelled with Alexa Fluor 488-C5-maleimide (natural protein, Alexa Fluor 488-C5-maleimide on the cysteine of L31C) MATPWSGYLDDVSAKFDTGVDNLQTQVTEACDKLAAKPSDPALLAAYQSKLSEYNLYRNAQSNTAKAFKDIDAAIIQNFR"
  Kd: "189 µM"
